Target: Angiotensin-converting enzyme (Oryctolagus cuniculus)
Experimental endpoint: IC50 (nM)
Lab book: enter the figure in nM, no units written.

Ask | Name the recorded IC50 of the compound listed here: CCCC(N[C@@H](C)C(=O)N1C(C(=O)O)CC2CCCCC21)C(=O)O (stereo partly specified)
Reply | 1.5
